Origin of measurements: PubChem BioAssay (NCI)

Let's look at some molecules and their measured growth inhibition.
experiment: NCI Yeast Anticancer Drug Screen. Data for the rad50 strain (AID 155);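 also: 0% = growth of vehicle-only cultures of the same strain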; details: S. cerevisiae rad50 strain growth inhibition; at 50.0 µM; hits give high values
Compounds without any hit were thinned out: in the full panel of roughly 79,000, 15% have a hit.

MOLECULE | growth inhibition / %
CC1=NOC(=O)/C1=C/c1ccc2c(c1)OCO2 | 82.2
CCCCNC1CCC2(SCCS2)c2[nH]c3ccccc3c21 (stereo not given) | 87.3
OCC(CO)C(c1cccc2ccccc12)c1cccc2ccccc12 | 99.3
COc1c(O)c(C=O)c(Br)c(C=O)c1O | 98.2
N#CNC(N)=Nc1cc2ccccc2c2ccccc12 | 89.5

###

Examples of molecules with documented growth inhibition follow.
assay: NCI Yeast Anticancer Drug Screen. Data for the wt2 strain (AID 169);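 also: 0% = growth of vehicle-treated yeast cultures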; conditions: S. cerevisiae wt2 strain growth inhibition; at 3.7 µM; hits give high values
The panel holds about 79,000 compounds, 15% with a hit somewhere; the sample as a whole holds those more often. Activity calls are given as the source filed them. No stated cut-off is given here; in the data, active means growth inhibition above about 70%; inactive means the rest.
ENDPOINT LABEL: growth inhibition

STRUCTURE AS SMILES | ENDPOINT LABEL | RESULT
Cc1cc(C(C)(C)C)c(OCCCN2CCOCC2)c(C(C)(C)C)c1 | growth inhibition | -3% (inactive)
O=[N+]([O-])c1ccc2c(c1)/C(=N/N=C1c3ccccc3Cc3ccccc31)c1cc([N+](=O)[O-])cc([N+](=O)[O-])c1-2 | growth inhibition | 41% (inactive)
O=C1NC(SSC2=NNC3(C(=O)N2)c2ccccc2-c2ccccc23)=NNC12c1ccccc1-c1ccccc12 | growth inhibition | -3% (inactive)
CC(C)(C)C1=CC(=CC=C2C=CN(CCCCCCCCCCCO)C=C2)C=C(C(C)(C)C)C1=O | growth inhibition | 4% (inactive)

###

assay: NCI Yeast Anticancer Drug Screen. Data for the mec2-1 strain (AID 157); conditions: S. cerevisiae mec2-1 strain, at 50.0 µM (retest, dose inferred, filed as 5.0), hits give high values
About 79,000 compounds went through this panel and 15% of them were active in at least one assay; those are over-represented in the sample as a whole. The source made the active and inactive calls. Rule as the data show it: active = growth inhibition above about 70%; inactive = the rest.

STRUCTURE AS SMILES | growth inhibition
COc1ccc([N+](=O)[O-])c2c(NCCCN(C)C)c3ccccc3nc12 | 99% (active)
CCOC(=O)C(C(=O)OCC)=P(c1ccccc1)(c1ccccc1)c1ccccc1 | 16% (inactive)
O=C1C=C(Cl)C(=O)C(c2ccc(Cl)cc2)=C1 | 99% (active)
O=C(O)c1ccccc1/C=N/N=C1c2ccccc2-c2ccccc21 | 15% (inactive)
C/C=C/SC(=Nc1ccccc1)Nc1ccccc1 | 67% (inactive)

###

experiment: NCI Yeast Anticancer Drug Screen. Data for the sgs1 strain (AID 173);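 also: 0% = growth of vehicle-only control cultures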; settings: S. cerevisiae sgs1 mutant, at 100.0 µM, hits give high values
This is part of a sample that, as a whole, favours compounds with a hit. Of some 79,000 tested, about 15% had one in any assay.
Label F if growth inhibition falls below 60%; label T in every other case.

MOLECULE | LABEL CLASS
O=c1c2ccccc2nc(-c2ccccc2)n1O | T
CN(C)CCCCN1c2ccccc2Sc2ccc(N=[N+]=[N-])cc21 | T
Nc1ccc(F)cc1S | T
O=C(C[n+]1ccc2ccccc2c1)c1ccc2ccccc2c1 | T
CCCCc1ccc(-n2c(C)c(COC(=O)NC)c(COC(=O)NC)c2C)cc1 | T
Cc1ccc2c3ccc4c(c3n(C)c2c1)C(=O)C=CC4=O | T
CCN(CC)CCN(C)CCc1ccc(Br)cc1 | T
CCC(C)NC1=NCC(C)S1 (stereo not drawn) | F
CCCCCCN(CCCCCC)CC(O)c1ccnc2ccc(OC)cc12 (stereo not drawn) | T
CCC(C)(C)c1ccc(Oc2cccc(C(=O)O)c2)cc1 | T
COc1cc([C@@H]2c3cc4c(cc3[C@H](OC3OC5COC(C(C)C)OC5C(O)C3O)C3COC(=O)[C@@H]32)OCO4)cc(OC)c1O (stereo partly drawn) | F
CC1CC(C)(C)CC(OCCN2CCCCC2)(c2ccccc2)C1 (stereo not drawn) | T
Cn1c(-c2ccc(/C=N\N3CCN(/N=C/c4ccc(-c5c[n+]6ccccc6n5C)cc4)CC3)cc2)c[n+]2ccccc12 | T
O=C1C=C(c2ccccc2)OC1(c1ccccc1)N1CCOCC1 (stereo not drawn) | T
Cc1c2ccnc(C(=O)NCCN(C)C)c2cc2c3cc(O)ccc3n(C)c12 | F
O=C(/C=C\c1cccc(C(F)(F)F)c1)c1ccccc1 | F
Cc1cc(C)nc(NS(=O)(=O)c2ccc(Nc3c4ccccc4nc4c(C(=O)NCCO)cccc34)cc2)n1 | F
CC(C)(C)N=C(NO)c1ccccc1 | T
CCOC1(c2cccc([N+](=O)[O-])c2)c2ccccc2Oc2ccccc21 | F
c1ccc2c(c1)sc1c3cnccc3ccc21 | F
CCCCC/C(=C(\C#N)C(=O)OCC)c1ccccc1 | F
CCO/C(C)=C(/C#N)C(N)=S | F
CCCCN(CCCC)CCC(O)c1cc2c(Cl)cc(Cl)cc2c2cc(C(F)(F)F)ccc12 (stereo not drawn) | T
CCOC(=O)C(Br)C(Br)c1ccccc1Cl (stereo not drawn) | T
C=C(C(=C)n1nnc(C(=O)OC)c1C(=O)OC)n1nnc(C(=O)OC)c1C(=O)OC | F
CCCOC(=O)C(F)C(Br)C(=O)OCCC (stereo not drawn) | T
Cc1nc(-c2cc3cc([N+](=O)[O-])ccc3oc2=O)cs1 | T
CN(C)/C=C/c1nnc([N+](=O)[O-])s1 | T
CC1SC2(C(=O)Nc3ccc(Cl)cc32)N(c2ccc(Cl)cc2)C1=O (stereo not drawn) | T
CCOC(=O)C1N=[N+](c2ccccc2)C(=O)/C1=C\n1c(=S)[nH]c2ccc([N+](=O)[O-])cc21 (stereo not drawn) | F
O=C1C=C(Cl)C(=O)N1c1cccc(Cl)c1 | T
NC(=O)c1c([N+](=O)[O-])cc(C(F)(F)F)cc1[N+](=O)[O-] | F
Cc1ccc2c(c1)C1(SC(C)C(=O)N1c1ccc(Cl)cc1)C(=O)N2 (stereo not drawn) | T
CC(C)c1ccc(NC(=S)NC(=O)c2ccccc2)cc1 | F
COc1ccc(N=CN(C)C)c(C)c1 | T
CCc1c[n+]([O-])c(C)cc1[N+](=O)[O-] | T
O=C(O)C1CC(c2ccccc2)=NN1c1ccccc1 (stereo not drawn) | T
NC(=O)C(=O)NNc1ccccc1 | T
N#CC1=C(N)N(/N=C/c2ccccc2)C(c2ccccc2)C1(C#N)C#N (stereo not drawn) | T
CCCCCCCCCCCC1N=C(N)NC(CCCO)=C1C(=O)OC (stereo not drawn) | T
O=Cc1ccc2c(c1)C(=O)c1ccccc1C2=O | F
Cc1cc(O)c(C(C)C)cc1C1(c2cc(C(C)C)c(O)cc2C)OC(=O)c2ccccc21 | F
Cc1ccc([N+]2=NC(c3ccccc3)=NN(c3ccccc3)C2)cc1 | T

###

assay: NCI Yeast Anticancer Drug Screen. Data for the mec2-1 strain (AID 157); conditions: S. cerevisiae mec2-1 strain, at 11.0 µM
Compounds without any hit were thinned out: in the full panel of roughly 79,000, 15% have a hit. Activity calls are given as the source filed them. Rule as the data show it: active = growth inhibition above about 70%; inactive = the rest.
Labels: 1 for active, -1 for inactive

MOLECULE | LABEL CLASS
CC(C)OC(=O)c1ccc(CCc2cc(O)c(Br)cc2O)cc1 | -1
CNCCCNc1c2ccccc2nc2cccc([N+](=O)[O-])c12 | 1
CC[N+]1(C)CCC(O)(c2ccc(OC)cc2)C(C(=O)c2ccc(OC)cc2)C1 (centres undefined) | -1
COc1cc2ccnc(-c3c4ccccc4c(N)c4c(OC)c(OC)ccc34)c2cc1OC | -1

###

Listing: growth inhibition of selected molecules
experiment: NCI Yeast Anticancer Drug Screen. Data for the sgs1 mgt1 strain (AID 161);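 also: 0% = growth of cultures given vehicle only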; details: S. cerevisiae sgs1 mgt1 strain, at 50.0 µM (retest, dose inferred, filed as 5.0), hits give high values
About 79,000 compounds went through this panel and 15% of them were active in at least one assay; those are over-represented in the sample as a whole.

MOLECULE | growth inhibition (%)
CCCCOCn1c(=O)[nH]c(=O)c2cc(Br)ccc21 | 91
N#CC1=C(N)N(/N=C/c2ccccc2)C(c2ccccc2)C1(C#N)C#N (centres undefined) | 76
CCCCOP(=O)(CCCP(=O)(OCCCC)OCCCC)OCCCC | 50
Cc1cc2c(cc1C)[n+]([O-])c(-c1nc3ccccc3s1)c(N)[n+]2[O-] | 89

###

experiment: NCI Yeast Anticancer Drug Screen. Data for the mlh1 strain (AID 171);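 also: 0% = growth of vehicle-treated control cultures of the same strain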; conditions: S. cerevisiae mlh1 strain growth inhibition; at 3.7 µM; hits give high values
Compounds without any hit were thinned out: in the full panel of roughly 79,000, 15% have a hit. Calls of active or inactive are those of the source. No stated cut-off is given here; in the data, active means growth inhibition above about 70%; inactive means the rest.
# key: entry, value: growth inhibition

MOLECULE | growth inhibition
S=c1sc2c(s1)SCCS2 | -2% (inactive)
CCC(=O)c1cc(C(=O)C(=S)SC)cc(C(=O)C(=S)SC)c1 | 40% (inactive)
CCCC/C=C/C(C)(C(=O)OCC)C(=O)OCC | -3% (inactive)
Cn1c(=O)c2c(nc(N)n2C2OC(CO)C(O)C2O)n(C)c1=O (stereo not given) | -7% (inactive)
c1ccc(Cc2cc(-c3ccccc3)n[nH]2)cc1 | -12% (inactive)
COc1ccc(C(=O)Oc2ccccc2Br)cc1 | 0% (inactive)
O=[N+]([O-])c1cc(F)c(F)cc1Sc1cc(F)c(F)cc1[N+](=O)[O-] | 7% (inactive)
COc1ccc(C(NCCNC(c2ccc(OC)c(OC)c2)c2cc3c(cc2O)OCO3)c2cc3c(cc2O)OCO3)cc1OC (stereo not given) | 1% (inactive)
C[CH2][Sn]([CH2]C)([O]C(=O)C(N)Cc1ccccc1)[O]C(=O)C(N)Cc1ccccc1 (stereo not given) | -2% (inactive)
c1ccc2cc(NCNc3ccc4ccccc4c3)ccc2c1 | 3% (inactive)
O=C1C=C(Cl)C(=O)C(c2ccc(Cl)cc2)=C1 | 61% (inactive)
CCCCN(CCCC)C(=O)/C=C/c1ccccc1 | -4% (inactive)
Cc1ccc(NC(=O)/C(CC2N=c3c(ccc4c(O)c5ccccc5c(O)c34)=NC2O)=N/NC(C)(C)C)cc1 (stereo not given) | 16% (inactive)
Cc1cc(C)c(NC(=S)NC(=O)c2ccccc2)cc1C | -20% (inactive)
CC(C)CN(CC(C)C)C(=O)c1ccc(Cl)c(Cl)c1 | 2% (inactive)
C=C1CC(CCCl)(c2ccccc2)OC1=O (stereo not given) | 35% (inactive)
COc1cc(CSc2ccc(O)cc2)cc(O)c1O | 0% (inactive)
CCC(C)NC1=NCC(C)S1 (stereo not given) | -27% (inactive)
COc1cc2ccnc(-c3c4ccccc4c(N)c4c(OC)c(OC)ccc34)c2cc1OC | -2% (inactive)
Cc1cc(=O)oc2c(C)c3occc(=O)c3cc12 | 4% (inactive)
Cc1ccc2c3ccc4c(c3n(C)c2c1)C(=O)C=CC4=O | -3% (inactive)
CCOC(=O)C1=C(C)NC(C)=C(C(=O)OCCNC(=O)c2ccc(N=[N+]=[N-])cc2)C1c1ccccc1C(F)(F)F (stereo not given) | -5% (inactive)
CCCCCCCCCCCCCCCCCC(=O)NCCCN(C)C | -35% (inactive)
Cc1cc2c(cc1C)[n+]([O-])c(-c1nc3ccccc3s1)c(N)[n+]2[O-] | 14% (inactive)
CCOC(=O)CC1(C(=O)OCC)c2[nH]c3ccccc3c2CCN1Cc1ccccc1 (stereo not given) | -3% (inactive)
CCOC(=O)C#Cc1ccc([N+](=O)[O-])cc1 | -3% (inactive)
NC(=O)c1c([N+](=O)[O-])cc(C(F)(F)F)cc1[N+](=O)[O-] | 2% (inactive)
CCCCOC(=O)Nc1ccc(C)c(NC(=O)OCCCC)c1 | -6% (inactive)
OCC(CO)C(c1cccc2ccccc12)c1cccc2ccccc12 | 11% (inactive)
Nc1ncnc2c1ncn2C1OC(CO)CC1O (stereo not given) | -5% (inactive)
CCOC(=O)c1[nH]n(-c2ccccc2)c(=O)c1C=NC(=S)C(N)=S | 16% (inactive)
Cc1nc(-c2cc3cc([N+](=O)[O-])ccc3oc2=O)cs1 | -12% (inactive)
COc1c(O)c(C=O)c(Br)c(C=O)c1O | 2% (inactive)
CN(C)CCNC(=O)c1cccc2c1Oc1c(cccc1[N+](=O)[O-])O2 | 13% (inactive)
CN1CCN(C(=O)/C=C/C(=O)c2ccccc2)CC1 | 12% (inactive)
O=C(Nc1ccc(Cl)cc1)Nc1nnc2nc(C(C(=O)c3cccc([N+](=O)[O-])c3Cl)c3nc4nnc(NC(=O)Nc5ccc(Cl)cc5)n4[nH]c3=O)c(=O)[nH]n12 | -2% (inactive)
O=C(NCCCl)Sc1ccc(Cl)cc1 | 1% (inactive)
CC(C)OC(=O)Nc1ccc2nc(-c3cscn3)[nH]c2c1 | 1% (inactive)
COc1ccc2[nH]cc([C@@H]3C4CCC(C4)[C@H]3NCc3cccc(CN[C@H]4C5CCC(C5)[C@@H]4c4c[nH]c5ccc(OC)cc45)c3)c2c1 | -64% (inactive)
O=C(O)c1ccc(N2C(=O)C=CC2=O)cc1 | 5% (inactive)
